# test_system: HIV-1 92RW020 Env (HIV-1 92RW020)
# protocol_text: cell-based or functional assay
quantity_measured: IC50 (ug/ml), pseudovirus neutralization, TZM-bl assay (µg/mL)

{"columns": ["binder", "assay_result"],
 "data": [
  ["1503_H05 (PG16) (TCN-119) (antibody, V domains shown) VH: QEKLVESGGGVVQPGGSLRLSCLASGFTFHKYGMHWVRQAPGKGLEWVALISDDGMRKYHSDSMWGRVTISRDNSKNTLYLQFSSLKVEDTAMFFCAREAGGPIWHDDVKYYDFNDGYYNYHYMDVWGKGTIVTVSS VL: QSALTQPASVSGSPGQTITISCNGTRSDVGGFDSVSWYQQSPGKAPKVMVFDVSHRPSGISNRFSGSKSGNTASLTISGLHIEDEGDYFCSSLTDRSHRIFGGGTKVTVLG", 0.02]
]}
